Test system: SK-OV-3 ovarian
Test: NCI tumour cell line growth inhibition, 48 h
quantity.measured: GI50

Consider the following illustrative entries.
[[record]]
molecular_string = "O=C(NCCNCCO)c1ccc2c(c1)oc1cc3ccccc3c(=O)n12"
quantity_measured = "GI50"
result_value = "> 50 µM"

[[record]]
molecular_string = "CCn1cc(C(=O)O)c(=O)c2cc(F)c(N3CCN(S(=O)(=O)c4cccc5ccccc45)CC3)cc21"
quantity_measured = "GI50"
result_value = "3.11 µM"


Let us examine a further case.
Hello, I am looking for reported GI50 with SK-OV-3 ovarian for CSC1=Nc2c(c(C)c(C)n2COC(CO)CO)C2=NC(=O)CN12 . Could you help? > 100 µM

----------
Could you please report measured TGI for the items listed next?
System: SK-MEL-2 melanoma
Test: NCI tumour cell line growth inhibition, 48 h

Consider the following illustrative entries.
[[record]]
compound = "O=C(/C=C/c1ccc(O)c(O)c1)OCCc1ccc2ccccc2c1"
tested_target = "SK-MEL-2 melanoma"
quantity_measured = "TGI"
result_value = "4.35 µM"

[[record]]
compound = "Nc1nc2c(c3cnccc13)C(c1ccc(Cl)c(Cl)c1)Cc1cnccc1-2 (stereo unspecified)"
tested_target = "SK-MEL-2 melanoma"
quantity_measured = "TGI"
result_value = "1.86 µM"

[[record]]
compound = "CN(C)CCN(c1ccccn1)c1ccccn1"
tested_target = "SK-MEL-2 melanoma"
quantity_measured = "TGI"
result_value = "> 100 µM"

[[record]]
compound = "CC1=C(C(=O)Nc2ccccc2)C(c2ccc(N(C)C)cc2)C(C(=O)Nc2ccccc2)=C(C)N1"
tested_target = "SK-MEL-2 melanoma"
quantity_measured = "TGI"
result_value = "> 100 µM"

[[record]]
compound = "COC(=O)CCC(NC(=S)N/N=C/c1cccs1)C(=O)OC (stereo unspecified)"
tested_target = "SK-MEL-2 melanoma"
quantity_measured = "TGI"
result_value = "> 100 µM"


Provide the reported TGI of each entry below, same order.
1. COC(=O)/C=C(/C(=O)OC)C1(C)c2cc(C(=O)OC)c(C(=O)OC)c(N)c2C(=N)N1c1ccccc1 (stereo unspecified)
2. CCCCCCCCCCCCCCCCCCOc1ccccc1CC(=O)NCC[N+]1(C)CCOCC1
3. CCNc1nc(O)c(/C=C2\C=Nc3ncccc32)s1
4. COc1cc2oc(-c3ccc(O)cc3)cc(=O)c2c(O)c1C1OC(CO)C(O)C(O)C1O (stereo unspecified)
5. CC(C)Oc1cccc(N2C(n3ccnc3)=Nc3ccncc3S2(=O)=O)c1
6. N#C/C(=C\c1cc(OCc2ccccc2)c(OCc2ccccc2)cn1)C(N)=O
7. COc1ccc(C(=O)c2cc(OC)c(OC)c(OC)c2OC)cc1O
8. CC1(C)OC[C@@H]([C@@]2(CO[Si](c3ccccc3)(c3ccccc3)C(C)(C)C)CC=CC(=O)O2)O1

81.4 µM
34.6 µM
8.93 µM
> 100 µM
26.7 µM
> 100 µM
> 100 µM
> 100 µM

Provide the reported TGI of each entry below, same order.
1. CSC1=Nc2c(c(C)c(C)n2COC(CO)CO)C2=NC(=O)CN12
2. NS(=O)(=O)c1nnc(NC(=O)N(c2ccccc2)c2ccccc2)s1
3. CN(/N=C1\C(=O)Nc2ccccc21)c1ccccc1

1: > 100 µM; 2: 89.1 µM; 3: > 100 µM

Provide the reported TGI of each entry below, same order.
1. CCCCCCN(CCCCCC)C(=S)N/N=C(\C)c1ccccn1
2. Cc1nnc2n(c1=O)CCCN2C

1. 3.02 µM
2. > 100 µM

Provide the reported TGI of each entry below, same order.
1. O=c1c(F)cn2c(=O)n1CCCCCCCn1c(=O)c(F)cn(c1=O)CCCCCCC2
2. Cn1c2ccccc2c2ccc3c(c21)C(=O)c1ccc2c4ccccc4n(C)c2c1C3=O

> 100 µM
> 100 µM

TGI for O=C1[C@@H]2C(c3c(Cl)cccc3Cl)=NO[C@@H]2C(=O)N1c1ccc(Cc2ccc(N3C(=O)[C@H]4C(c5c(Cl)cccc5Cl)=NO[C@H]4C3=O)cc2)cc1 ? > 100 µM

The reported measurements were obtained from PubChem BioAssay (NCI).
